Tested on: normal primary NK cells, pool 1 (3 donors) (IL-2 2.5 ng/mL)
Assay: percent inhibition of viability; higher = more inhibition
Conditions: 72 h; 10 nM
QUANTITY: percent inhibition of viability (%)
One number for each entry, in %.

Consider the worked cases shown below.
COc1cc2nccc(Oc3ccc(NC(=O)C4(C(=O)Nc5ccc(F)cc5)CC4)cc3)c2cc1OC [Cabozantinib] (max concentration tested 1000 nM) ... -1.12
CON(C)C(=O)N1N=C(c2cc(F)ccc2F)S[C@@]1(CCCN)c1ccccc1 [ARRY-520] (max concentration tested 1000 nM) ... -12

Here is another compound to look at.
Request body: readout percent inhibition of viability, system normal primary NK cells, pool 1 (3 donors) (IL-2 2.5 ng/mL), query CC[C@@H]1C(=O)N(C)c2cnc(Nc3ccc(C(=O)N[C@H]4CC[C@H](N5CCN(CC6CC6)CC5)CC4)cc3OC)nc2N1C(C)C [Volasertib] (max concentration tested 1000 nM) . Return the value.
-3.63

* * *

Tested on: normal NK cells expanded with K562-aAPC
Experiment: drug sensitivity score (DSS) (DSS units); higher = more sensitive; extreme values may be limits of the assay
Settings: 72 h; IL-2 2.5 ng/mL
The threshold is inclusive: drug sensitivity score of exactly 0.9 counts as met; values below receive not met.

C[C@]12CC[C@H](O)CC1=CC[C@@H]1[C@@H]2CC[C@]2(C)C(c3cccnc3)=CC[C@@H]12 [Abiraterone] (max concentration tested 5000 nM) ... not met
CCCCCOC(=O)Nc1nc(=O)n([C@@H]2O[C@H](C)[C@@H](O)[C@H]2O)cc1F [Capecitabine] (max concentration tested 10000 nM) ... not met

Tell me whether drug sensitivity score is at least 0.9 here: NC(=O)Nc1sc(-c2ccc(F)cc2)cc1C(N)=O [TPCA-1] (max concentration tested 25000 nM)
met

Entry to check: CC(=O)Nc1ccc(C(=O)Nc2ccccc2N)cc1 [Tacedinaline] (max concentration tested 1000 nM)
not met

* * *

System: NKL (IL-2 2.5 ng/mL)
Assay: percent inhibition of viability; higher = more inhibition
Conditions: 72 h; 0.1 nM
QUANTITY: percent inhibition of viability (%)
Answers are plain numbers, in %.

Below, each entry is followed by its recorded percent inhibition of viability result.
COc1cc2c(Oc3ccc(NC(=O)C4(C(=O)Nc5ccc(F)cc5)CC4)cc3F)ccnc2cc1OCCCN1CCOCC1 [Foretinib] (max concentration tested 1000 nM) ... -12.1
O=C1c2c(O)ccc(O)c2C(=O)c2c(NCCNCCO)ccc(NCCNCCO)c21 [Mitoxantrone] (max concentration tested 1000 nM) ... -8.85
COc1cc2nccc(Oc3ccc(NC(=O)C4(C(=O)Nc5ccc(F)cc5)CC4)cc3)c2cc1OC [Cabozantinib] (max concentration tested 1000 nM) ... -19
C[C@@H](Oc1ccc2[nH]nc(/C=C/c3cnn(CCO)c3)c2c1)c1c(Cl)cncc1Cl (max concentration tested 1000 nM) ... -5.85

Now, please, on to the next compound.
Form field: percent inhibition of viability recorded for CC(C)C[C@H](NC(=O)[C@H](CCc1ccccc1)NC(=O)CN1CCOCC1)C(=O)N[C@@H](Cc1ccccc1)C(=O)N[C@@H](CC(C)C)C(=O)[C@@]1(C)CO1 [Carfilzomib] (max concentration tested 1000 nM) with NKL (IL-2 2.5 ng/mL) (enter value)
-2.93
